Target: human ether-à-go-go-related gene (hERG) potassium channel (human, UniProt Q12809)
Sequence (Q12809 whole entry, looked up): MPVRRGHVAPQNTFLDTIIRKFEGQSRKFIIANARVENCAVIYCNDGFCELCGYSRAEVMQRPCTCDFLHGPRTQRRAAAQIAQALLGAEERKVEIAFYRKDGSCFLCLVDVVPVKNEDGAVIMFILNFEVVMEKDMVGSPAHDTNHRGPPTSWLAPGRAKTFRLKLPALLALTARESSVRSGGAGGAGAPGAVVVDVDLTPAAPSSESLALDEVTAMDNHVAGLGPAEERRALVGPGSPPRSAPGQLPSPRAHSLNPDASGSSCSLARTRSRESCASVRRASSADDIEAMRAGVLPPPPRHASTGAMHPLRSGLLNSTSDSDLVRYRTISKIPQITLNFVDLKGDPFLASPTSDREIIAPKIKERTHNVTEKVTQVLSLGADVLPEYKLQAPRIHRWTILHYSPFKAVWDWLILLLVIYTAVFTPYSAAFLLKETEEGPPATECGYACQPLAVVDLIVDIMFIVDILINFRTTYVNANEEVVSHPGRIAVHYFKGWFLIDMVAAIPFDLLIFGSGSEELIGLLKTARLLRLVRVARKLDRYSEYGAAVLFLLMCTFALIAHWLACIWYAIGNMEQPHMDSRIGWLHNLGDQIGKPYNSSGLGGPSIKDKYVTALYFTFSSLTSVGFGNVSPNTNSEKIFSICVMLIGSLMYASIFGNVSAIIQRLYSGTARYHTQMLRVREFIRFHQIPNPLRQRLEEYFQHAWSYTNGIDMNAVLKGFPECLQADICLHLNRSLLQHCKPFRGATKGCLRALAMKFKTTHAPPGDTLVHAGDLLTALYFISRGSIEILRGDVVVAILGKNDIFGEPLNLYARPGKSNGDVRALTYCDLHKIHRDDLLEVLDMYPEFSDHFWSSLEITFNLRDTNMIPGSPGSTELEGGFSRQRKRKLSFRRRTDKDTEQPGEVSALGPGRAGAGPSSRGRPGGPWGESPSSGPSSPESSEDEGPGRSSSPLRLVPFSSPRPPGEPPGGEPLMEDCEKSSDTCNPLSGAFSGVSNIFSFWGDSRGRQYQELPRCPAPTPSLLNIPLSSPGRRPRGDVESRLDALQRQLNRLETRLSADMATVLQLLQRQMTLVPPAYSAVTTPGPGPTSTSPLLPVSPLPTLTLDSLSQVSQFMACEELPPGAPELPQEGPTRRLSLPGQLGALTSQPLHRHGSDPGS
Assay: primary screen, population patch clamp on CHO cells stably expressing hERG; higher = less effect of the substance
Hit rate of the full screen: of about 310,000 compounds, about 14,000 (4.5%) showed an effect of 50% or more. Effects have a minus sign here. The entries come from a sample that favours strong results as a whole.
Give measured hERG current change (%, negative = inhibition) at 10uM for each item. Keep answers brief.
Give bare numbers, in %.

>>> print(df.to_string())
                                   compound  unit_string  result
0  Cc1ccc(-c2csc(NC(=O)c3cc([N+](=O)[O-])ccc3N3CCOCC3)n2)cc1            %    15.4
1    Cn1c(SCC(=O)Nc2ccc(F)cc2)nnc1-c1cccnc1            %   -11.5
2  COc1ccc(C(=O)N/C(=C/c2cccs2)C(=O)NC(C)(C)C)cc1OC            %    5.42
3  S=C1NCCc2ccccc2C1c1ccccc1 (centres unmarked)            %   -14.5
4            Cc1cccc(NC(=O)CCn2nc(C)cc2C)c1            %    9.02
5  Fc1ccc(-c2nc3c(-c4ccccc4)cnn3cc2CCN2CCOCC2)cc1            %   -15.2

Look up hERG current change (%, negative = inhibition) at 10uM for the entries below, preserving their order.
1. CC1CC(OC(=O)c2ccccc2)CC(C)N1C.Cl (centres unmarked)
2. COc1cc(OC)nc(Oc2cc(/C=N/O)ccc2OC)n1
3. Cc1ccc(NC(=O)CC(C(=O)O)c2ccccc2)cc1 (centres unmarked)
4. O=C1CCCN1CC(=O)N1CCCC(N2CCN(c3cccc(Cl)c3)CC2)C1 (centres unmarked)
5. COc1ccc(-n2cnc3cc(C(=O)N4CCC5(CC4)OCCO5)ccc32)cc1

-5.09
0.516
8.15
8.15
-42.8

----------
Target: human ether-à-go-go-related gene (hERG) potassium channel (human, UniProt Q12809)
Test: primary screen, population patch clamp on CHO cells stably expressing hERG; higher = less effect of the substance
The whole screen tested about 310,000 compounds, of which about 14,000 (4.5%) showed an effect of 50% or more. The effect is printed as a negative number. Only a selection was taken, and strong results are over-represented in it overall.
Measured Property: hERG current change (%, negative = inhibition) at 10uM
Returns: string containing the numeric result and its unit.

Past entries and their recorded results:
>>> df
                                   compound  result
0                COC(=O)c1ccc(CN2CCCCC2)cc1   1.45%
1  O=C(c1cccs1)N(Cc1cccc(F)c1)C1CCS(=O)(=O)C1 (stereo not shown)  -14.9%
2      COc1ccc(CC2(CO)CCN(Cc3ccncc3)CC2)cc1  -21.2%

Look up hERG current change (%, negative = inhibition) at 10uM for the entries below, preserving their order.
1. CCOc1ccc(NC(=O)c2ccc3[nH]c(=O)c(=O)[nH]c3c2)cc1
2. O=C(NCC1CCCO1)c1cc2c([nH]c3ccccc32)c(-c2cccc(Cl)c2)n1 (stereo not shown)
3. COC(=O)c1ccc(CN2CCC(CO)(Cc3cccc(OC)c3)CC2)cc1
4. O=C(c1ccco1)N(Cc1ccc(Cl)cc1)C1CCS(=O)(=O)C1 (stereo not shown)
5. COc1ccc(-c2ncc(CN3CCC(CO)(Cc4cccc(OC)c4)CC3)cn2)cc1
6. COC(=O)c1ccc(CN2CCC(CO)(Cc3ccccc3Cl)CC2)cc1

["16.8%", "-20.5%", "-66.1%", "-11.6%", "-4.79%", "-64.8%"]

State the recorded hERG current change (%, negative = inhibition) at 10uM for this entry: `CCN1CCN(Cc2ccc(OC(F)(F)F)cc2)CC1`
-26.6%

----------
Give measured hERG current change (%, negative = inhibition) at 10uM for each item. Keep answers brief.
Molecular target: human ether-à-go-go-related gene (hERG) potassium channel (human, UniProt Q12809);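 also: peak tail current of the secondary pulse compared with the same well before compound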
Test: primary screen, population patch clamp on CHO cells stably expressing hERG; higher = less effect of the substance
Hit rate of the full screen: of about 310,000 compounds, about 14,000 (4.5%) showed an effect of 50% or more. Effects have a minus sign here. The sample holds strong results, similar compounds and a random draw of the others, so the mix is not that of the screen.
Give bare numbers, in %.

Past entries and their recorded results:
>>> print(df.to_string())
                                   compound  unit_string  result
0  COc1ccc(CNC(=O)[C@H](Cc2c[nH]c3ccccc23)NC(=O)[C@@H]2Cc3ccccc3CN2)cc1            %   -53.9
1  Cc1cccc(NC(=O)[C@@H](CC(C)C)NC(=O)[C@@H]2Cc3ccccc3CN2)c1            %   -40.7
2  CCc1ccc(NC(=O)[C@@H](NC(=O)[C@@H]2Cc3ccccc3CN2)C(C)CC)cc1 (some centres unmarked)            %   -13.6

Look up hERG current change (%, negative = inhibition) at 10uM for the entries below, preserving their order.
1. Cc1cccc(NC(=O)[C@H](NC(=O)[C@@H]2Cc3ccccc3CN2)c2ccccc2)c1
2. Cc1ccc(NC(=O)[C@H](NC(=O)[C@@H]2Cc3ccccc3CN2)c2ccccc2)cc1C
3. COc1ccc(NC(=O)[C@H](Cc2c[nH]c3ccccc23)NC(=O)[C@@H]2Cc3ccccc3CN2)cc1
4. CCc1ccc(NC(=O)[C@H](NC(=O)[C@@H]2Cc3ccccc3CN2)c2ccccc2)cc1
5. COc1ccc(C)cc1NC(=O)COC(=O)c1ccc2ccccc2n1

[-54.4, -37.9, -36.8, -55, 3.24]

----------
Biological target: human ether-à-go-go-related gene (hERG) potassium channel (human);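 also: peak tail current of the secondary pulse compared with the same well before compound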
Experiment: primary screen, population patch clamp on CHO cells stably expressing hERG; higher = less effect of the substance
Among all 310,000 compounds or so, about 14,000 (4.5%) showed an effect of 50% or more. The effect is printed as a negative number. This excerpt belongs to a sample that is enriched for strong results.
Measured Property: hERG current change (%, negative = inhibition) at 10uM (%)
Answers are plain numbers, in %.

>>> print(df.to_string())
                                   compound  result
0  COc1c(C)cc(C(=O)C2CCCN(Cc3ccccn3)C2)cc1C (centres unmarked)   -16.5
1  COc1c(C)cc(C(=O)C2CCCN(Cc3ccc(Oc4ncccn4)cc3)C2)cc1C (centres unmarked)   -68.9
2  CC(C)Oc1cccc(C(=O)C2CCCN(Cc3ccc4nonc4c3)C2)c1 (centres unmarked)   -1.53
3  O=C(c1ccc(Cl)cc1)C1CCCN(Cc2ccc(Oc3ncccn3)cc2)C1 (centres unmarked)   -72.9

State the recorded hERG current change (%, negative = inhibition) at 10uM for this entry: CC(C)Oc1cccc(C(=O)C2CCCN(Cc3cnn(C(C)C)c3)C2)c1 (centres unmarked)
-36.3

----------
Molecular target: human ether-à-go-go-related gene (hERG) potassium channel (human);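 also: peak tail current of the secondary pulse compared with the same well before compound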
Experiment: primary screen, population patch clamp on CHO cells stably expressing hERG; higher = less effect of the substance
About 14,000 (4.5%) of roughly 310,000 compounds showed an effect of 50% or more. Effects have a minus sign here. The sample as a whole holds a higher share of strong results than the screen did.
Give measured hERG current change (%, negative = inhibition) at 10uM for each item. Keep answers brief.
Give bare numbers, in %.

Past entries and their recorded results:
>>> print(df.to_string())
                                   molecule  unit_string  result
0                 Nc1c(NCc2ccccc2)c(=O)c1=O            %   -6.37
1         COc1cccc(OCCNC(=O)c2cccc(OC)c2)c1            %    -1.4
2  CCOC(=O)N(Cc1ccccc1)Cc1ccc(C(=O)N[C@@H](Cc2ccccc2)C(=O)O)cc1            %    13.8
3  O=C1C2C3c4ccccc4C(c4ccccc43)[C@@H]2C(=O)N1c1ccccn1 (some centres unmarked)            %     5.6

State the recorded hERG current change (%, negative = inhibition) at 10uM for this entry: CCCn1c(C(Cc2ccccc2)NC(=O)COC)nc2ccccc21 (centres unmarked)
2.2

----------
Biological target: human ether-à-go-go-related gene (hERG) potassium channel (human, UniProt Q12809);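 also: peak tail current of the secondary pulse compared with the same well before compound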
Experiment: primary screen, population patch clamp on CHO cells stably expressing hERG; higher = less effect of the substance
Among all 310,000 compounds or so, about 14,000 (4.5%) showed an effect of 50% or more. The effect is printed as a negative number. This excerpt belongs to a sample that is enriched for strong results.
Note to self: values exactly at -30% are 1. So hERG current change (%, negative = inhibition) at 10uM at or above -30% is 1, below is 0.

                                   molecule  class_name
0  O=C(COc1ccc(Cl)cc1)N1CCN(c2ccc([N+](=O)[O-])c(N3CCCCC3)c2)CC1           1
1  O=C(Nc1ccnn1C1CCN(C2CCOCC2)CC1)c1cccc(F)c1           1
2    Cc1ccc(C(=O)Nc2nc(N)n(-c3ccccc3)n2)cc1           1
3  CCOc1ccc(-n2cc(C(=O)N3CCN(C)CC3)c3cc(OC)c(OC)cc3c2=O)cc1           1
4  Cc1ccc(OCC(=O)N2CCN(c3ccc([N+](=O)[O-])c(N4CCOCC4)c3)CC2)cc1           0
5  CC(C)=CCN1CCC(n2nccc2NC(=O)c2ccccc2Cl)CC1           0
6  Cc1ccc(NC(=O)CSc2ccc3nnc(-c4ccccn4)n3n2)cc1           0
7  COc1ccc(/C=N/Nc2cc(N(C)C)nc(N(C)C)n2)cc1           1

Given the entry `CCCn1nc(C(=O)OCC(=O)Nc2cccc(OC)c2)c2ccccc2c1=O` , answer whether its hERG current change (%, negative = inhibition) at 10uM meets or surpasses -30%.
1

Given the entry `O=C(CSc1ccc2nnc(-c3ccccn3)n2n1)Nc1ccccc1` , answer whether its hERG current change (%, negative = inhibition) at 10uM meets or surpasses -30%.
1
